Here the recorded growth AUC is given for each entry.
system: Bacteroides dorei; experiment: growth AUC relative to DMSO control (median of replicates) (fraction); higher = more growth (less inhibition), active = hit call of the paper; conditions: 20 µM; 24 h

Sample records with growth AUC:
molecule: CC(=O)Nc1cc(NS(=O)(=O)C(F)(F)F)c(C)cc1C
study-target: Bacteroides dorei
growth AUC: 1.02 (inactive)

molecule: C#CC(C)N(C)C(=O)Nc1ccc(Cl)cc1 (stereo unspecified)
study-target: Bacteroides dorei
growth AUC: 0.978 (inactive)

molecule: CCNc1nc(NC(C)CC)nc(OC)n1 (stereo unspecified)
study-target: Bacteroides dorei
growth AUC: 1.02 (inactive)

molecule: CC(C)([CH2][Sn]([CH2]C(C)(C)c1ccccc1)([CH2]C(C)(C)c1ccccc1)[O][Sn]([CH2]C(C)(C)c1ccccc1)([CH2]C(C)(C)c1ccccc1)[CH2]C(C)(C)c1ccccc1)c1ccccc1
study-target: Bacteroides dorei
growth AUC: 0.989 (inactive)

molecule: COC1CCC2(CC1)NC(=O)C(c1cc(C)ccc1C)=C2OC1OC(CO)C(O)C(O)C1O (stereo unspecified)
study-target: Bacteroides dorei
growth AUC: 0.993 (inactive)

stdin: Name the recorded growth AUC of the item `Cn1cc(C(=O)Nc2ccccc2-c2cc(F)c(F)c(F)c2)c(C(F)F)n1` in your answer.
stdout: 0.972 (inactive)

stdin: Entry `COc1ccc(Cl)c(Cl)c1Cl` needs its growth AUC filled in; supply it.
stdout: 1.02 (inactive)

stdin: Using the record for `Cc1cc(C)cc(O)c1` , state its measured growth AUC.
stdout: 1.01 (inactive)

stdin: Provide one value: measured growth AUC of Cc1cc(CC(C)CC(C)(C)C)n(O)c(=O)c1.NCCO (stereo unspecified)
stdout: 0.99 (inactive)

stdin: Provide measured growth AUC value, entry: `O.O.O=[N+]([O-])c1ccc([O-])cc1.[Na+]`
stdout: 0.988 (inactive)

stdin: Give growth AUC for `COc1cc(OC)c(Cl)cc1N`
stdout: 1.02 (inactive)

###

tested on: Collinsella aerofaciens; test: growth AUC relative to DMSO control (median of replicates) (fraction); higher = more growth (less inhibition), active = hit call of the paper; conditions: 20 µM; 24 h
property-name: growth AUC
Could you respond with only the numeric value?

compound: O=C(O)Cc1c[nH]c2ccccc12
growth AUC: 0.984

stdin: Return reported growth AUC. Input compound: `Cl.NCCO/C=C/[C@H](N)C(=O)O`
stdout: 1.03

stdin: Identify measured growth AUC corresponding to `COc1cc(OC)nc(NC(=O)NS(=O)(=O)c2c(-c3nnn(C)n3)cnn2C)n1`
stdout: 0.978

stdin: In one line, give reported growth AUC of the entry `CC(C)N(C(=O)C(=O)O)c1ccc(F)cc1` .
stdout: 1.01

stdin: State its growth AUC for this compound: `Cc1[nH]oc(=O)c1N=Nc1ccccc1Cl`
stdout: 0.961

###

test system: Lactobacillus paracasei; assay: growth AUC relative to DMSO control (median of replicates) (fraction); higher = more growth (less inhibition), active = hit call of the paper; conditions: 20 µM; 24 h
Recorded growth AUC by entry
Output spec: single numeric token, no unit.

Record excerpt, results attached:
smiles-notation: O=C(O)COc1ccc(Cl)c2cccnc12
study-target: Lactobacillus paracasei
growth AUC: 1.01

smiles-notation: CC(C)CNC(=O)N1CCNC1=O
study-target: Lactobacillus paracasei
growth AUC: 1.04

smiles-notation: COC(=O)CSc1cc(N=c2sc(=O)n3n2CCCC3)c(F)cc1Cl
study-target: Lactobacillus paracasei
growth AUC: 0.974

smiles-notation: COc1nc(NC(=O)NS(=O)(=O)c2ccccc2C(F)(F)F)nc(C(F)(F)F)n1
study-target: Lactobacillus paracasei
growth AUC: 0.986

smiles-notation: COc1nc(C)nc(NC(=O)NS(=O)(=O)c2ccccc2OCCCl)n1
study-target: Lactobacillus paracasei
growth AUC: 0.982

stdin: State its growth AUC: `CCCCOCCOC(=O)COc1ccc(Cl)cc1Cl`
stdout: 0.962

stdin: Answer with the recorded growth AUC for the compound listed here: `CCc1cccc(C)c1N(C(=O)C(=O)O)[C@@H](C)C(=O)O`
stdout: 1.01

Provenance of the data: the supplement of paper PMC12669032
